target: Protein kinase C beta type (Homo sapiens); note: in the data inactive means no Kd found up to 30 µM
Sequence (P05771 whole entry): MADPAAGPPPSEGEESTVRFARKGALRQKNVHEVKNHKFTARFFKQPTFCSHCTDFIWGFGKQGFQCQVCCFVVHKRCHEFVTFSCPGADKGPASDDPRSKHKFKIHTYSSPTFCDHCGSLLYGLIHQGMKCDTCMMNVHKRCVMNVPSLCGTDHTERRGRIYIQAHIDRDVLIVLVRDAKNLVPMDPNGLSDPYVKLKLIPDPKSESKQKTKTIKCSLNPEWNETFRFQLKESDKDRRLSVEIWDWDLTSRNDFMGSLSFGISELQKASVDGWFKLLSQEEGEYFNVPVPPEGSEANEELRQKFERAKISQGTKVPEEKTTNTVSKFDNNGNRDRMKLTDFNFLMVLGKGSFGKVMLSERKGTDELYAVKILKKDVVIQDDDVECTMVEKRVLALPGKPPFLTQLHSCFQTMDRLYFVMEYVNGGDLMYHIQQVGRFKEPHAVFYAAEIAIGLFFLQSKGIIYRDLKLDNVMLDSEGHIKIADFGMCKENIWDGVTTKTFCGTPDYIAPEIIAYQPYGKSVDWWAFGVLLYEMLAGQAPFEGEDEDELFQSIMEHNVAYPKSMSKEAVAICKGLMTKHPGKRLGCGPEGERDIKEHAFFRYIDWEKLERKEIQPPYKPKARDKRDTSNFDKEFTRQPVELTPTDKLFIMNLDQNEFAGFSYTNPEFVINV
Calls of active or inactive are those of the source.
Valid outcomes are listed here; reply with one: class 1 (active), class 0 (inactive)

Just curious, what result did CCn1c(C(=O)N(C2CC2)C2CC2)cc2c3c(ncn3C)c(Nc3cc(C)n(C)n3)nc21 [BMS-911543] get here?
class 0

Assay outcome for Cc1csc(-c2nnc(Nc3ccc(Oc4ncccc4-c4ccnc(N)n4)cc3)c3ccccc23)c1 [AMG-900] : what was it?
class 0

I'd appreciate the recorded outcome for C=CC(=O)Nc1cc2c(Nc3ccc(F)c(Cl)c3)ncnc2cc1C#CC(C)(C)N1CCN(C)CC1 [AV-412 FREE BASE] from this test.
class 0

Write down the call the test reported for this compound. Item: Cc1cc(Nc2ncc(Cl)c(Nc3ccccc3S(=O)(=O)C(C)C)n2)c(OC(C)C)cc1C1CCNCC1 [CERITINIB]
class 0

Hi team, can someone confirm the assay call for O=C(Nc1c[nH]nc1-c1nc2cc(CN3CCOCC3)ccc2[nH]1)NC1CC1 [AT-9283] ?
class 1

For this compound, state the assay outcome: CCNC(=O)C#Cc1ccc2c(c1)NC(=O)/C2=C(\Nc1ccc(CN(C)C)cc1)c1ccccc1
class 0

# fetch the recorded call for CCCCCCCCCCCCCCCCCCOP(=O)([O-])OC1CC[N+](C)(C)CC1 [PERIFOSINE] here
class 0

Can you look up the reported call for COc1ccc(S(=O)(=O)N(C(C)=O)c2ccccc2/C=C/c2cc[n+]([O-])cc2)cc1 [HMN-214] for me?
class 0

Look up the recorded call for COCc1c(-c2ccc(NC(=O)Nc3cc(C(F)(F)F)ccc3F)c(F)c2)c2c(N)ncnn2c1CN1CCOCC1 in this test.
class 0

Which outcome was entered for the compound C[C@@H](Oc1cc(C(=O)Nc2ccc(C(=O)N3CCN(C)CC3)cc2)nnc1N)c1c(Cl)ccc(F)c1Cl in this test?
class 0

I would be grateful if you could indicate the recorded call for FC(F)(F)c1ccc(/C=C/c2nc(COc3ccc(CCCCn4ccnn4)cc3)co2)cc1 [MUBRITINIB] .
class 0

Status in this test for C[C@@H](N)c1ccc(C(=O)Nc2ccnc3[nH]ccc23)cc1 [Y-39983] ?
class 1

Given Cc1nc2cc(-c3nn(C(C)C)c4ncnc(N)c34)ccc2o1 , state the outcome it received in this test.
class 0

Answer briefly: the call reported for COc1cc(Nc2ncc3c(n2)-c2ccc(Cl)cc2C(c2c(F)cccc2OC)=NC3)ccc1C(=O)O [ALISERTIB] in this assay.
class 0

Given Cc1[nH]c(/C=C2\C(=O)Nc3ccccc32)c(C)c1CCC(=O)O [ORANTINIB] , state the outcome it received in this test.
class 0

# lookup: test call for COc1c(OCCCN2CCOCC2)ccc2c1N=C(NC(=O)c1cnc(N)nc1)N1CCN=C21 [COPANLISIB]
class 0

For C[C@H]1CNCCCN1S(=O)(=O)c1cccc2cncc(F)c12 , which call appears in the assay record?
class 0

Give the logged outcome of this assay for the following compound: Cc1nc2cc(-n3ncc(C(=O)c4cc5ccccc5[nH]4)c3N)ccc2[nH]1 [FGFR INHIBITOR DEBIO 1347]
class 0
